What protein stability index was measured for each of the following?
B1: CCDC6 (parent)
chain: TLFKKIQALQKEKETLAVNYEKEE

Variants of: B1
EXPERIMENTAL PROTOCOL: protein stability index of a GFP-peptide fusion (GPS, HEK-293T) (PSI 1-6); higher = more stable;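 note: lentivirally expressed fusions sorted by FACS into six bins by GFP to DsRed ratio, PSI derived from sequencing read proportions per bin multiplied by bin number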
CONDITION CONTEXT: c terminus: a fixed tail appended

Some solved cases for reference:
For this variant ( TLFKKIQALQKEKETLAVNYEKEC [E24C] ), measured protein stability index is 3.06

For this variant ( TLFKKIQALQFEKETLAVNYEKEE [K11F] ), measured protein stability index is 2.94

Please turn your attention to the following entry.
For this variant ( TLFKKIQALQLEKETLAVNYEKEE [K11L] ), measured protein stability index is 3.05
